Tested on: Maus
TEST: Tail suspension test
Assay type: in vivo
APPLIED CONDITIONS: ip, Tabelle Ib; read-out: Erste wirksame Dosis T.S.T. Maus
Reported minimal effective dose values are given for each entry in this list.

>>> print(df.to_string())
                                   molecule       reported_endpoint         value
0  CN1Cc2c(N)cccc2C(c2ccccc2)C1 (stereo not shown)  minimal effective dose    0.25 mg/kg
1             CN(C)CCCN1c2ccccc2CCc2ccccc21  minimal effective dose  1 to 4 mg/kg
2  CNCCCN1c2ccccc2CCc2ccccc21 [DESIPRAMIN, reference compound]  minimal effective dose  1 to 4 mg/kg

Prompt: API: value(readout= minimal effective dose, system= Maus, query= FC(F)(F)c1ccc([C@@H]2CCNC[C@H]2c2ccccc2)cc1 (racemic) )
Completion: 4 mg/kg
